Listed compounds paired with reported IC50
- System: K. pneumoniae (ATCC10031)
- Assay Notes: 50% growth inhibitory concentration (IC50) determination assay
- Assay type: cell-based
- Test Parameters: Klebsiella pneumoniae, Iso-Sensitest broth, 0.098 = detection limit
Observed Property: IC50

- CNc1cc(F)c(F)c2c1[nH]c1ncc(-c3cnc4c(c3)c(=O)c(C(=O)O)cn4C)c(N3CCC4(C[C@@H]4N(C)C)C3)c12 (stereo partly drawn): 0.118 µM
- CNc1cc(F)c(F)c2c1[nH]c1ncc(-c3cnc4c(c3)c(=O)c(C(=O)O)cn4C)c(N3CCC(O)(CN(C)C)C3)c12 (stereo not drawn): < 0.098 µM
- CNc1cc(F)c(F)c2c1[nH]c1ncc(-c3cnc4c(c3)c(=O)c(C(=O)O)cn4C)c(N3CCC(F)(CN)C3)c12 (stereo not drawn): < 0.098 µM

* * *

- Assay Notes: Cytotoxicity assay (HepG2, CellTiter-Blue cell viability)
- Type: cell-based
- Test Parameters: human; HepG2 cells, 3 days treatment; "*": the detection limit; read-out: CC50
Observed Property: CC50 at 3 days (µM)

• CNc1cc(F)c(F)c2c1[nH]c1ncc(-c3cnc4c(c3)c(=O)c(C(=O)O)cn4C)c(N3CCC(CN(C)C)C3)c12 (stereo not drawn) = 29.3
• CNc1cc(F)c(F)c2c1[nH]c1ncc(-c3cnc4c(c3)c(=O)c(C(=O)O)cn4C)c(N3CCC4(CCN(C)C4)C3)c12 (stereo not drawn) = 53.1
• CNc1cc(F)c(F)c2c1[nH]c1ncc(-c3cnc4c(c3)c(=O)c(C(=O)O)cn4NC)c(N3CCC[C@H]3CN(C)C)c12 = 27.8
• CCNc1cc(F)c(F)c2c1[nH]c1ncc(-c3cnc4c(c3)c(=O)c(C(=O)O)cn4C)c(N3CCC(CN(C)C)C3)c12 (stereo not drawn) = 91.3

* * *

Listed next: entries and their corresponding CC50 at 3 days.
- Assay Notes: Cytotoxicity assay (HepG2, CellTiter-Blue cell viability)
- Type: cell-based
- Test Parameters: human; HepG2 cells, 3 days treatment; "*": the detection limit; read-out: CC50
Observed Property: CC50 at 3 days (µM)

• CNc1cc(F)c(F)c2c1[nH]c1ncc(-c3cnc4c(c3)c(=O)c(C(=O)O)cn4NC)c(N3CC[C@@H]4CN(C)C[C@@H]43)c12 [Example 3.01B] = 39.4
• CNc1c(F)c(F)cc2c1[nH]c1ncc(-c3cnc4c(c3)c(=O)c(C(=O)O)cn4C3CCNC3)c(N(C)C)c12 (stereo not drawn) [Example 1.55] = 49.8
• CNc1cc(F)c(F)c2c1[nH]c1ncc(-c3cnc4c(c3)c(=O)c(C(=O)O)cn4C)c(N3C[C@H](C)[C@@H](O)C3)c12 [Example 1.83] = 26.4

* * *

- Assay Notes: Cytotoxicity assay (HepG2, CellTiter-Blue cell viability)
- Format: cell-based
- Test Parameters: human; HepG2 cells, 3 days treatment; "*": the detection limit; read-out: CC50
# label = criterion met if CC50 at 3 days < 40 µM else criterion not met

• CNc1cc(F)cc2c1[nH]c1ncc(-c3cnc4c(c3)c(=O)c(C(=O)O)cn4C)c(N3CCC(C)(O)C3)c12 (stereo not drawn) [Example 1.59] = criterion met
• CNc1cc(F)c(F)c2c1[nH]c1ncc(-c3cnc4c(c3)c(=O)c(C(=O)O)cn4CC(C)(C)O)c(N3CCOCC3)c12 [Example 1.35] = criterion not met
• CNc1cc(F)c(F)c2c1[nH]c1ncc(-c3cnc4c(c3)c(=O)c(C(=O)O)cn4C)c(N3CCC4(CN(C)C4)C3)c12 [Example 1.228] = criterion not met
• CNc1cc(F)c(F)c2c1[nH]c1ncc(-c3cnc4c(c3)c(=O)c(C(=O)O)cn4NC)c(N3C[C@H]4CCN(C)[C@H]4C3)c12 [Example 3.07A] = criterion not met
• [2H]C([2H])([2H])Nc1cc(F)c(F)c2c1[nH]c1ncc(-c3cnc4c(c3)c(=O)c(C(=O)O)cn4C)c(N3CCC[C@H]3CN(C)C)c12 [Example 1.161] = criterion not met
• CNc1cc(F)c(F)c2c1[nH]c1ncc(-c3cnc4c(c3)c(=O)c(C(=O)O)cn4CC3CCCN3)c(N3CCOCC3)c12 (stereo not drawn) [Example 1.11] = criterion not met
• CNc1cc(F)c(F)c2c1[nH]c1ncc(-c3cnc4c(c3)c(=O)c(C(=O)O)cn4C)c(N3CC[C@H]4CN(C)CC43)c12 (stereo partly drawn) [Example 1.85] = criterion met
• CNc1cc(F)cc2c1[nH]c1ncc(-c3cnc4c(c3)c(=O)c(C(=O)O)cn4C)c(N3CCC(N(C)C)C3)c12 (stereo not drawn) [Example 1.75] = criterion not met
• CNc1cc(F)cc2c1[nH]c1ncc(-c3cnc4c(c3)c(=O)c(C(=O)O)cn4C)c(N3CCC(O)(C(F)(F)F)C3)c12 (stereo not drawn) [Example 1.25] = criterion not met
• CNc1cc(F)c(F)c2c1[nH]c1ncc(-c3cnc4c(c3)c(=O)c(C(=O)O)cn4C)c(N3C[C@H](O)[C@@H](F)C3)c12 [Example 1.82] = criterion not met
• CNc1cc(F)c(F)c2c1[nH]c1ncc(-c3cnc4c(c3)c(=O)c(C(=O)O)cn4C3CCNC3)c(N3CCSCC3)c12 (stereo not drawn) [Example 1.98] = criterion not met
• CNc1cc(F)cc2c1[nH]c1ncc(-c3cnc4c(c3)c(=O)c(C(=O)O)cn4C)c(N3CCC(CO)C3)c12 (stereo not drawn) [Example 1.54] = criterion not met
• CNc1c(Cl)c(F)cc2c1[nH]c1ncc(-c3cnc4c(c3)c(=O)c(C(=O)O)cn4C3CCNC3)c(N(C)C)c12 (stereo not drawn) [Example 1.68] = criterion met
• CNc1cc(F)c(F)c2c1[nH]c1ncc(-c3cnc4c(c3)c(=O)c(C(=O)O)cn4CC3COCCN3)c(N(C)C)c12 (stereo not drawn) [Example 1.03] = criterion met

* * *

Some compounds, each annotated with its measured solubility thermodynamic.
- Assay Notes: Lyophilisation solubility assay (LYSA)
- Assay type: physicochemical
- Test Parameters: phosphate buffer, pH 6.5, aqueous buffer, thermodynamic from solid, 0.05 M phosphate buffer, HPLC-UV
Observed Property: solubility thermodynamic (mg/mL)

* CNc1cc(F)c(F)c2c1[nH]c1ncc(-c3cnc4c(c3)c(=O)c(C(=O)O)cn4C)c(N3CCC(N(C)CCO)C3)c12 (stereo not drawn) | 0.069
* CNc1cc(F)c(F)c2c1[nH]c1ncc(-c3cnc4c(c3)c(=O)c(C(=O)O)cn4C)c(N3CCCC(N(C)C)C3)c12 (stereo not drawn) | 0.048
* CNc1cc(F)c(F)c2c1[nH]c1ncc(-c3cnc4c(c3)c(=O)c(C(=O)O)cn4C)c(N3CCC(N(C)CCOC)C3)c12 (stereo not drawn) | 0.056
* CNc1c(F)c(F)cc2c1[nH]c1ncc(-c3cnc4c(c3)c(=O)c(C(=O)O)cn4C)c(N3CC[C@H]4CN(C)CC43)c12 (stereo partly drawn) | 0.011
* CNc1cc(Cl)c(F)c2c1[nH]c1ncc(-c3cnc4c(c3)c(=O)c(C(=O)O)cn4C)c(N3CC[C@H]4CN(C)CC43)c12 (stereo partly drawn) | 0.104
* CNc1cc(Cl)c(F)c2c1[nH]c1ncc(-c3cnc4c(c3)c(=O)c(C(=O)O)cn4NC)c(N3CC[C@H]4CN(C)CC43)c12 (stereo partly drawn) | 0.241
* CNc1cc(F)c(F)c2c1[nH]c1ncc(-c3cnc4c(c3)c(=O)c(C(=O)O)cn4NC)c(N3C[C@@H]4CCN(C)[C@@H]4C3)c12 [Example 3.07B] | 0.033
* CNc1cc(F)cc2c1[nH]c1ncc(-c3cnc4c(c3)c(=O)c(C(=O)O)cn4C)c(N3C[C@H](C)[C@@H](N(C)C)C3)c12 | 0.049
* CNc1cc(F)cc2c1[nH]c1ncc(-c3cnc4c(c3)c(=O)c(C(=O)O)cn4C)c(N3CCO[C@H](CN(C)C)C3)c12 [Example 3.02B] | 0.455
* CNc1cc(F)c(F)c2c1[nH]c1ncc(-c3cnc4c(c3)c(=O)c(C(=O)O)cn4NC)c(N3CC[C@@H]4C3CCN4C)c12 (stereo partly drawn) | 0.487
* CNc1cc(F)c(F)c2c1[nH]c1ncc(-c3cnc4c(c3)c(=O)c(C(=O)O)cn4C)c(N3CC[C@H]4CCN(C)C4C3)c12 (stereo partly drawn) | 0.025
* CNc1cc(F)c(F)c2c1[nH]c1ncc(-c3cnc4c(c3)c(=O)c(C(=O)O)cn4C)c(N3CCN4CCC[C@@H]4C3)c12 | 0.079

* * *

- Assay Notes: Single dose PK study (SDPK) in female CD-1 mouse
- Type: in vivo
- Test Parameters: MOUSE IV, 1.0 mg/kg-Solution
Observed Property: AUC total (ng·h/mL)

- CNc1cc(F)c(F)c2c1[nH]c1ncc(-c3cnc4c(c3)c(=O)c(C(=O)O)cn4C3CCNC3)c(N(C)C)c12 (stereo not drawn) [Example 1.02]: 291.0
- CNc1cc(F)cc2c1[nH]c1ncc(-c3cnc4c(c3)c(=O)c(C(=O)O)cn4C)c(N3CC[C@H]4CN(C)C[C@H]43)c12 [Example 3.04A]: 241.6
- CNc1cc(F)c(F)c2c1[nH]c1ncc(-c3cnc4c(c3)c(=O)c(C(=O)O)cn4C)c(N3C[C@H]4CCN(C)[C@H]4C3)c12 [Example 3.08A]: 190.5
